# TARGET_OR_TEST_SYSTEM: EGFR (form used in the assay not stated) (human, UniProt P00533 25-645, limits assumed)
# METHOD: ELISA, NEM conjugate, 10 nM
MEASURED_ENDPOINT: binding relative to P54AR4-83v2 parent

Dear colleague, I am looking for the recorded binding relative to P54AR4-83v2 parent of the following binder: P54AR4-83v2 S10C, NEM conjugate (designed binder, not shown: small tags and cut ends, N-ethyl maleimide (NEM) on Cys 10) LPAPKNLVVCEVTEDSARLSWDDPWAFYESFLIQYQESEKVGEAIVLTVPGSERSYDLTGLKPGTEYTVSIYGVHNVYKDTNMRGLPLSAIFTT
0.83 ratio

Same read-out for P54AR4-83v2 S55C, NEM conjugate (designed binder, not shown: small tags and cut ends, N-ethyl maleimide (NEM) on Cys 55) LPAPKNLVVSEVTEDSARLSWDDPWAFYESFLIQYQESEKVGEAIVLTVPGSERCYDLTGLKPGTEYTVSIYGVHNVYKDTNMRGLPLSAIFTT ?
0 ratio

Same read-out for P54AR4-83v2 L32C, NEM conjugate (designed binder, not shown: small tags and cut ends, N-ethyl maleimide (NEM) on Cys 32) LPAPKNLVVSEVTEDSARLSWDDPWAFYESFCIQYQESEKVGEAIVLTVPGSERSYDLTGLKPGTEYTVSIYGVHNVYKDTNMRGLPLSAIFTT ?
0.87 ratio

Same read-out for P54AR4-83v2 F27C, NEM conjugate (designed binder, not shown: small tags and cut ends, N-ethyl maleimide (NEM) on Cys 27) LPAPKNLVVSEVTEDSARLSWDDPWACYESFLIQYQESEKVGEAIVLTVPGSERSYDLTGLKPGTEYTVSIYGVHNVYKDTNMRGLPLSAIFTT ?
0 ratio
